# Assayed Target: wildtype feline IL-31 (Feline_IL31_wildtype) (feline)
# Sequence (chain, as listed by the source limits assumed, form in doubt): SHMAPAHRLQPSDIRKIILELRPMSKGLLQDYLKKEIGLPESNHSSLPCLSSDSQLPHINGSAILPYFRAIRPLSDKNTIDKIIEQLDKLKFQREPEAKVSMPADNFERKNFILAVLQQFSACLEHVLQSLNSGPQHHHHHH
# Assay Name: SPR (Biacore), immobilised IL-31, 1:1 fit
Measurement Kind: kon (M⁻¹ s⁻¹)
State just the number; it will be interpreted in M⁻¹ s⁻¹.

The examples below pair each entry with its known result.
Binder | kon [M⁻¹ s⁻¹]
Feline 15H05 1.1 K42N (antibody, V domains shown) VH: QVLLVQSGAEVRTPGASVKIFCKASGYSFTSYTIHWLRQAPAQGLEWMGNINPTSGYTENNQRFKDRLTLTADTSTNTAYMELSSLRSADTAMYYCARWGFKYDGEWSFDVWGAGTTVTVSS VL: EIQMTQSPSSLSASPGDRVTITCRASQGISIWLSWYQQKPGNVPKLLIYKASNLHIGVPSRFSGSGSGTDFTLTISSLEPEDAATYYCLQSQTYPLTFGGGTKLEIK | 1630
Feline 15H05 1.3 (antibody, V domains shown) VH: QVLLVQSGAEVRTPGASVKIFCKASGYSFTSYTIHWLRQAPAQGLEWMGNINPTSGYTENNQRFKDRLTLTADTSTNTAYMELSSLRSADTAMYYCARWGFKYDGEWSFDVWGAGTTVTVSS VL: EVVLTQSSAFLSRTLKEKATITCRASQGISIWLSWYQQKPNQAPKLLVKKASNLHIGAPSRFSGSGSGTDFTLTISSPEPEDAATYYCLQSQTYPLTFGGGTKLGDQ | 38000

[in] Item mouse anti IL-31 antibody 15H05 (antibody, V domains shown) VH: QVQLQQSAAELARPGASVKMSCKTSGYTFTSYTIHWIKQRPGQGLEWIGNINPTSGYTENNQRFKDKTTLTVDRSSNTAYLQLHSLTSEDSAVYFCARWGFKYDGEWSFDVWGAGTTVTVSS VL: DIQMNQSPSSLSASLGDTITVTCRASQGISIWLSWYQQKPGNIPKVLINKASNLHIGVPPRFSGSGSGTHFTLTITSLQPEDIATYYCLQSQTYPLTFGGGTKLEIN has what recorded kon?
[out] 48400
